Test system: 991263-137-R1-J2-PDC complex spheroid viability;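 note: spheroids exposed to compounds for 7 days before readout; 100% = DMSO vehicle control viability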
assay-text: Anticancer human tumor 991263-137-R1-J2-PDC patient-derived colon adenocarcinoma cell line growth inhibition [POLQ]
details: second compound 10 µM; first compound 1 µM; stronger effect = lower value
Parameter viability, T/C: see the listing below.
measurement-type: viability, T/C

INSERT INTO measurements (compound, value) VALUES
  ('CCCS(=O)(=O)Nc1ccc(F)c(C(=O)c2c[nH]c3ncc(-c4ccc(Cl)cc4)cc23)c1F + COC1C(OC(N)=O)C(O)C(Oc2ccc3c(O)c(NC(=O)c4ccc(O)c(CC=C(C)C)c4)c(=O)oc3c2C)OC1(C)C', '111%'),
  ('CCCS(=O)(=O)Nc1ccc(F)c(C(=O)c2c[nH]c3ncc(-c4ccc(Cl)cc4)cc23)c1F + Nc1ccc(C#CCN(C(=O)Cc2ncc(C(F)(F)F)cc2C(F)(F)F)c2ccc(F)cc2)nn1', '104%'),
  ('Nc1ccn(C2OC(CO)C(O)C2(F)F)c(=O)n1 (stereo not given) + Cc1cccc(N(C)C(=O)C2C(O)CCN2c2nc(C)cc(C(F)(F)F)c2C#N)c1', '49.6%'),
  ('CC1COCCN1c1cc(-c2ccnn2C)c2ccnc(-c3ccn[nH]3)c2n1 (stereo not given) + COC1C(OC(N)=O)C(O)C(Oc2ccc3c(O)c(NC(=O)c4ccc(O)c(CC=C(C)C)c4)c(=O)oc3c2C)OC1(C)C', '54.9%'),
  ('COc1ccc([C@@H](O)c2cc(-c3ncnc4cc(N5CCOCC5)ccc34)c(F)cc2Cl)nn1 + Nc1ccc(C#CCN(C(=O)Cc2ncc(C(F)(F)F)cc2C(F)(F)F)c2ccc(F)cc2)nn1', '82.5%');
